Measured inhibition at 100 µM values are reported for all entries that follow.
# Target desc: SARS-CoV-2 Mac1 (Severe acute respiratory syndrome coronavirus 2, UniProt P0DTD1)
# Experiment summary: biochemical
# Experimental setup: read-out: %inhibition
Counter-ions that a name gives are not always drawn.

[
  {
    "Compound": "O=C(NC(Cc1cc(=O)[nH]c2ccccc12)C(=O)O)c1ccc(Cl)cc1 (stereo not drawn) [Rebamipide]",
    "Target desc": "SARS-CoV-2 Mac1 (Severe acute respiratory syndrome coronavirus 2, UniProt P0DTD1)",
    "Unit label": "%",
    "inhibition at 100 µM": 0
  },
  {
    "Compound": "Nc1c(CC(=O)O)cccc1C(=O)c1ccc(Br)cc1 [Bromfenac Sodium]",
    "Target desc": "SARS-CoV-2 Mac1 (Severe acute respiratory syndrome coronavirus 2, UniProt P0DTD1)",
    "Unit label": "%",
    "inhibition at 100 µM": 8.6
  },
  {
    "Compound": "CC[C@]1(O)C[C@H]2CN(CCc3c([nH]c4ccccc34)[C@@](C(=O)OC)(c3cc4c(cc3OC)N(C=O)[C@H]3[C@@](O)(C(=O)OC)[C@H](OC(C)=O)[C@]5(CC)C=CCN6CC[C@]43[C@@H]65)C2)C1 [Vincristine sulfate]",
    "Target desc": "SARS-CoV-2 Mac1 (Severe acute respiratory syndrome coronavirus 2, UniProt P0DTD1)",
    "Unit label": "%",
    "inhibition at 100 µM": 42.2
  },
  {
    "Compound": "O=c1ccc2ccccc2o1",
    "Target desc": "SARS-CoV-2 Mac1 (Severe acute respiratory syndrome coronavirus 2, UniProt P0DTD1)",
    "Unit label": "%",
    "inhibition at 100 µM": 5.25
  },
  {
    "Compound": "CCOc1nc2cccc(C(=O)O)c2n1Cc1ccc(-c2ccccc2-c2noc(=O)[nH]2)cc1",
    "Target desc": "SARS-CoV-2 Mac1 (Severe acute respiratory syndrome coronavirus 2, UniProt P0DTD1)",
    "Unit label": "%",
    "inhibition at 100 µM": 16.1
  },
  {
    "Compound": "C#C[C@]1(OC(C)=O)CC[C@H]2[C@@H]3CCC4=C[C@@H](OC(C)=O)CC[C@@H]4[C@H]3CC[C@@]21C [Ethynodiol diacetate]",
    "Target desc": "SARS-CoV-2 Mac1 (Severe acute respiratory syndrome coronavirus 2, UniProt P0DTD1)",
    "Unit label": "%",
    "inhibition at 100 µM": 0
  },
  {
    "Compound": "C[C@@H]1CC[C@H]2[C@@H](C)C(=O)O[C@@H]3O[C@@]4(C)CC[C@@H]1[C@]32OO4",
    "Target desc": "SARS-CoV-2 Mac1 (Severe acute respiratory syndrome coronavirus 2, UniProt P0DTD1)",
    "Unit label": "%",
    "inhibition at 100 µM": 10.9
  },
  {
    "Compound": "O=C1CCc2cc(OCCCCc3nnnn3C3CCCCC3)ccc2N1",
    "Target desc": "SARS-CoV-2 Mac1 (Severe acute respiratory syndrome coronavirus 2, UniProt P0DTD1)",
    "Unit label": "%",
    "inhibition at 100 µM": 7.33
  },
  {
    "Compound": "CN1CCN(CCCN2c3ccccc3Sc3ccc(C(F)(F)F)cc32)CC1 [Trifluoperazine 2HCl]",
    "Target desc": "SARS-CoV-2 Mac1 (Severe acute respiratory syndrome coronavirus 2, UniProt P0DTD1)",
    "Unit label": "%",
    "inhibition at 100 µM": 0
  },
  {
    "Compound": "CC1(C)O[C@@H]2C[C@H]3[C@@H]4CCC5=CC(=O)C=C[C@]5(C)[C@@]4(F)[C@@H](O)C[C@]3(C)[C@]2(C(=O)CO)O1 [Triamcinolone Acetonide]",
    "Target desc": "SARS-CoV-2 Mac1 (Severe acute respiratory syndrome coronavirus 2, UniProt P0DTD1)",
    "Unit label": "%",
    "inhibition at 100 µM": 0
  },
  {
    "Compound": "COc1ccc2[nH]cc(CCNC(C)=O)c2c1",
    "Target desc": "SARS-CoV-2 Mac1 (Severe acute respiratory syndrome coronavirus 2, UniProt P0DTD1)",
    "Unit label": "%",
    "inhibition at 100 µM": 9.33
  },
  {
    "Compound": "COC(=O)Nc1nc2cc(C(=O)c3ccc(F)cc3)ccc2[nH]1",
    "Target desc": "SARS-CoV-2 Mac1 (Severe acute respiratory syndrome coronavirus 2, UniProt P0DTD1)",
    "Unit label": "%",
    "inhibition at 100 µM": 4.36
  },
  {
    "Compound": "CCCCOC(=O)c1ccccc1Nc1cccc(C(F)(F)F)c1 [Ufenamate]",
    "Target desc": "SARS-CoV-2 Mac1 (Severe acute respiratory syndrome coronavirus 2, UniProt P0DTD1)",
    "Unit label": "%",
    "inhibition at 100 µM": 7.76
  },
  {
    "Compound": "C=C[C@H]1CN2CC[C@H]1C[C@@H]2[C@@H](O)c1ccnc2ccc(OC)cc12 [Quinidine sulfate]",
    "Target desc": "SARS-CoV-2 Mac1 (Severe acute respiratory syndrome coronavirus 2, UniProt P0DTD1)",
    "Unit label": "%",
    "inhibition at 100 µM": 0
  },
  {
    "Compound": "CN[C@@H]1[C@@H](O)[C@@H](O[C@@H]2[C@@H](O)[C@H](O[C@H]3O[C@H](CN)[C@@H](O)[C@H](O)[C@H]3O)[C@@H](N)C[C@H]2NC(=O)[C@@H](O)CN)OC[C@]1(C)O [Isepamicin Sulphate]",
    "Target desc": "SARS-CoV-2 Mac1 (Severe acute respiratory syndrome coronavirus 2, UniProt P0DTD1)",
    "Unit label": "%",
    "inhibition at 100 µM": 5.6
  }
]

---

# Target desc: SARS-CoV-2 Mac1 (Severe acute respiratory syndrome coronavirus 2)
# Experiment summary: biochemical
# Experimental setup: read-out: %inhibition
Structures can show the parent of a compound that is named as a salt.
Measured inhibition at 100 µM values are reported for all entries that follow.

[
  {
    "Compound": "C[C@H](CCC(=O)O)[C@H]1CC[C@H]2[C@@H]3C(=O)C[C@@H]4CC(=O)CC[C@]4(C)[C@H]3CC(=O)[C@]12C [Dehydrocholic acid]",
    "inhibition at 100 µM": "0%"
  },
  {
    "Compound": "C#C[C@]1(O)CC[C@H]2[C@@H]3CCc4cc(OC5CCCC5)ccc4[C@H]3CC[C@@]21C [Quinestrol]",
    "inhibition at 100 µM": "0%"
  },
  {
    "Compound": "CC(C(O)c1ccc(O)cc1)N1CCC(Cc2ccccc2)CC1 (centres unmarked) [Ifenprodil Tartrate]",
    "inhibition at 100 µM": "34.6%"
  },
  {
    "Compound": "Nc1ccc(C(=O)O)c(O)c1 [Sodium 4-Aminosalicylate]",
    "inhibition at 100 µM": "0%"
  },
  {
    "Compound": "CCOc1nc2cccc(C(=O)O)c2n1Cc1ccc(-c2ccccc2-c2nnn[nH]2)cc1 [Candesartan]",
    "inhibition at 100 µM": "0%"
  },
  {
    "Compound": "O=C(O)/C=C/C(=O)O [Fumaric acid]",
    "inhibition at 100 µM": "1.89%"
  },
  {
    "Compound": "N#CC1(c2ccc(NC(=O)c3cccnc3NCc3ccncc3)cc2)CCCC1 [Apatinib?mesylate]",
    "inhibition at 100 µM": "0%"
  },
  {
    "Compound": "CC(=O)CC/C=C(\\C)CC/C=C(\\C)CC/C=C(\\C)CCC=C(C)C [Teprenone]",
    "inhibition at 100 µM": "30.7%"
  }
]
